I'd appreciate it if you could supply apparent KD of MS2 coat protein values for the items below.
# Tested on: MS2 coat protein
# experiment.notes: apparent KD of MS2 coat protein; designed switch direction (-1 OFF switch, 1 ON switch): 1; higher = weaker reporter binding
# condition.context: input ligand: FMN 200 uM
Output spec: scalar in µM, unitless text.

Enquiry: Query (sequence): UUGAAGAAUUAAGGAUAUUGAAUACAUAUGUUUAACAUGAGGAUCACCCAUGUGGGUUGCGGUAUCGAGAAGGUAAAAUAAUAG [Mat - Same State NG 2 - JL mod - D4] (Eterna round: R96, puzzle: Same State NG 2) ; field requested: apparent KD of MS2 coat protein
Return: 0.118

Enquiry: apparent KD of MS2 coat protein lookup needed for GCUAGUAAAAUUGUCAACAUGAGGAUCACCCAUGUAUGUUGGCAGGAUAUCGUUUGCAAAGCAAACGAGAAGGGCUAAACUAGC [Mat - Same State NG 3 - JL Mod - D12] (Eterna round: R96, puzzle: Same State NG 3) , thanks.
Return: 0.0582

* * *

# System: MS2 coat protein
# experiment.notes: apparent KD of MS2 coat protein; designed switch direction (-1 OFF switch, 1 ON switch): -1; higher = weaker reporter binding
# condition.context: input ligand: none
Can you tell me apparent KD of MS2 coat protein for the items I'm about to list?
Just the number please, in nM, no unit attached.

Enquiry: Query apparent KD of MS2 coat protein on MS2 coat protein for UAUCAUCAUGUAGGAUAUGCGUGGCAAAGCUAUGCAGAAGGACAUGAGGAUCACCCAUGUUCUAGCGUCUGAGUACAGAUGCUA [Mat - Exclusion NG 1 - Mod of JL - D75] (Eterna round: R96, puzzle: Exclusion NG 1)
Return: 83.7

Enquiry: Under MS2 coat protein: apparent KD of MS2 coat protein value of GUGAUCUAUCAUGUAAUAAACAUGAGGAUCACCCAUGUAGACAAGUUUUUUGCUCGUCUUAUAAUAAGAUAGAUCAC [Antenna 15 - Jieux - Sensor, turn-off variant 1] (Eterna round: R97, puzzle: Sensor, turn-off variant 1) ?
Return: 15.9

Enquiry: Request - read-out apparent KD of MS2 coat protein | tested on MS2 coat protein | sequence UUCGUGUAAGGAUAUACGACUCAUCCCAAUGGGACGAGCACGUAGAAGGUACAUGAGGAUCACCCAUGUGCUCC [Eddianle] (Eterna round: R96, puzzle: Exclusion 4)
Return: 39.9

Enquiry: Hi! What's the reported apparent KD of MS2 coat protein for GCUGCGCGCUGUCGGGCGUCUGGUCUUGGAGGGAUAGACACAUGAGGAUCACCCAUGUUUCGGGUGUUCUUUCUAUA [JR_Sensorv2_tov2_Sub1512] (Eterna round: R96, puzzle: Sensor v2, turn-off variant 2) on MS2 coat protein?
Return: 183

* * *

# Test system: MS2 coat protein
# experiment.notes: apparent KD of MS2 coat protein; designed switch direction (-1 OFF switch, 1 ON switch): 1; higher = weaker reporter binding
# condition.context: Eterna round: R98; input ligand: none
observation.type: apparent KD of MS2 coat protein (nM)
State just the number; it will be interpreted in nM.

Enquiry: Given the entry AAAUAAAAUAUAGGAUAUGGAAACAUGAGGAUCACCCAUGUAUGAUAAGAUAAAUAAUGAUAUAGCCAGAAGGAUAAAAUAUAA [LRO006_SS NG 2] , report its measured apparent KD of MS2 coat protein.
Return: 33

Enquiry: Which apparent KD of MS2 coat protein value belongs to UCUGCUAUCGCAGGAUAUUACAUGGGAAAGAAUACAUGAGGAUCACCCAUGUAAAAGAUCAUAAAUAAGAAGGGCGAUAGCAGA [Lame State 7 - Jieux - Same State NG 2] ?
Return: 1530

Enquiry: Field request: apparent KD of MS2 coat protein | item: AAAACAUGAGGAUCACCCAUGUAAAGAUCGGUUAAUAGAAGUGAGGAUAUGCUUAAAAUAAGGUAGCAGAAGGCACUGGGUACA [JR_SSNG3_Sub040]
Return: 23.4

Enquiry: Fill in the blank: the reported apparent KD of MS2 coat protein of UUACGUCCCGUUUACAUGAGGAUCACCCAUGUCGAAAGACAUGAGGAUAUGCUACCUAGUUGGUAGCAGAAGGCGUGGACGUCG [salish99_SSNG3_r02_005] is ____.
Return: 121

Enquiry: Which measured apparent KD of MS2 coat protein value corresponds to GUAGCUAUCGCAGGAUAUCCUCAGGCGAAAGCCACAUGAGGAUCACCCAUGUAAAUAAAGAAUUUGGAGAAGGGCGAUAGCUAC [jl-sng2-2.34 Eli mod] ?
Return: 374

Enquiry: Tell me the measured apparent KD of MS2 coat protein of ACUGUCGCGUGAGGAUAUGGUCUGCAGUGCUGACCAGAAGGCAUGUCGAUAGACAUGAGGAUCACCCAUGUGGUUAGGGCGGAA [salish99_SSNG1_R02_019] , please.
Return: 298

Enquiry: Name the reported apparent KD of MS2 coat protein value associated with the sequence UAGAUCACCGAAGGAUAUGGGCAGAGUCCCGCUACAUGAGGAUCACCCAUGUCAGUCGGUCGUUUUCAGAAGGUCGGAAUGAUU [Zadi]
Return: 19.4
